Each entry below lists one item and its recorded IL-2, % of BMS, at 2.222222222 ug/mL value.
Target: human LAG3 expressed on cells (human) (UniProt P18627)
Sequence (P18627 23-525): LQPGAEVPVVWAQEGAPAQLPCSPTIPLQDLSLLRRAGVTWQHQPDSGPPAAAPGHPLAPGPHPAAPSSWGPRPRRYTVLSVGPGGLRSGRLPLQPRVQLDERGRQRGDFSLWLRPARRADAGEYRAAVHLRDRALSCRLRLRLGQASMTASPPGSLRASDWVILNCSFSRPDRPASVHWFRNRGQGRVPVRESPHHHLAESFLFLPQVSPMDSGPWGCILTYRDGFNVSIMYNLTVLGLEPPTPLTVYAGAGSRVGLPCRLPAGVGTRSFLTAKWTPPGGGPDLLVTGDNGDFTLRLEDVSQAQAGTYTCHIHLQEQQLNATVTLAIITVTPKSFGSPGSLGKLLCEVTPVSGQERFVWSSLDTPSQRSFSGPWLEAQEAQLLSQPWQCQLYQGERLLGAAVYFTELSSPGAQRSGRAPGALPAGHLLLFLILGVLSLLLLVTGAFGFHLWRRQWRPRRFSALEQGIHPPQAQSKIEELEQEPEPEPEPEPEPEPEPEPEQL
Assay: cell-based or functional assay

sdAb fusion 25-2015-1 (Fc fusion, not shown: a dimerising Fc or GST) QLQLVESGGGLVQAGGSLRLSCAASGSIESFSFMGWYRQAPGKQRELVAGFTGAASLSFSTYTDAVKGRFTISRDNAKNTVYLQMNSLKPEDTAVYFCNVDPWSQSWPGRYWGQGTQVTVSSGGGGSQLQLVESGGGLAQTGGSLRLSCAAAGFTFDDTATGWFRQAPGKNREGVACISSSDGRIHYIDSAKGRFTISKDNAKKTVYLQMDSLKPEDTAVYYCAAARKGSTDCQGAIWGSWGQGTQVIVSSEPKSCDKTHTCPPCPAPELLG	97.5%

(Q) Query (binder): sdAb fusion 25-2015-2 (Fc fusion, not shown: a dimerising Fc or GST) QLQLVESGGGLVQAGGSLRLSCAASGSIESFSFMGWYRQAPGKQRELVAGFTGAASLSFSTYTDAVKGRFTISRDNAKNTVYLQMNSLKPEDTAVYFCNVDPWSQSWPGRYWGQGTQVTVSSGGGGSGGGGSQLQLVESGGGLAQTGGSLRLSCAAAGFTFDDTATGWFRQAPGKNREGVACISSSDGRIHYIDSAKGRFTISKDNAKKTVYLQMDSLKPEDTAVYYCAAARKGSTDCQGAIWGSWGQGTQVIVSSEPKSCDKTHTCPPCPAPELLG ; field requested: IL-2, % of BMS, at 2.222222222 ug/mL
(A) 83.2%
